System: Trypanosoma cruzi
ASSAY_EXPLANATION: Antitrypanosomal activity against Trypanosoma cruzi infected in BALB/c mouse assessed as reduction in parasitemia at 1 mg/kg, ip dosed for 5 days measured on day 30 post infection
Assay type: functional
Set-up: scale not given: the % may be the effect or the level left
TEST_SETTINGS: route intraperitoneal
Quick reference for Activity among some compounds
Give the value in % but do not write % after it.

Previously resolved entries follow.
compound=Cl.c1c2n[nH]c1CNCCN1CCNCc3cc(n[nH]3)CNCCN(CCNC2)CCNCc2cc([nH]n2)CNCC1 measured=53
compound=Cl.c1ccc(Cn2nc3cc2CNCCNCCNCc2cc(n(Cc4ccccc4)n2)CNCCNCCNC3)cc1 measured=16
compound=Cl.Cn1nc2cc1CNCCNCCNCc1cc(n(C)n1)CNCCNCCNC2 measured=39

## Input // Activity lookup, key: O=C(Cn1ccnc1[N+](=O)[O-])NCc1ccccc1 [BENZNIDAZOLE]
## Output 26

---

ASSAY_EXPLANATION: Selectivity index, ratio of IC50 for Vero cells to IC50 for Trypanosoma cruzi epimastigote
Format: toxicity, cell-based
TEST_SETTINGS: monkey, Vero cells versus Trypanosoma cruzi epimastigotes; read-out: Ratio IC50
RECORDED_ENDPOINT: selectivity ratio
Quick one: just the number, no unit, thanks!

## Input // selectivity ratio lookup, key: `CCCCCCCCN1CCNCc2cc([nH]n2)CNCCN(CCCCCCCC)CCNCc2cc(n[nH]2)CNCC1`
## Output 0.5

## Input Likewise for `Cl.Cn1nc2cc1CNCCNCCNCc1cc(n(C)n1)CNCCNCCNC2` ?
## Output 137

## Input Likewise for `Cl.c1ccc(Cn2nc3cc2CNCCNCCNCc2cc(n(Cc4ccccc4)n2)CNCCNCCNC3)cc1` ?
## Output 11.8

## Input Likewise for `Cl.c1c2n[nH]c1CNCCN1CCNCc3cc(n[nH]3)CNCCN(CCNC2)CCNCc2cc([nH]n2)CNCC1` ?
## Output 115

---

Tested on: Mus musculus
ASSAY_EXPLANATION: Toxicity in BALB/c mouse liver infected with Trypanosoma cruzi assessed as lymphocytic infiltrations in portal tracts at 5 mg/kg, ip after 120 days postinfection Histopathological analysis
Format: organism-based
Parameters: dose 5 mg/kg, route intraperitoneal
TEST_SETTINGS: in vivo, 2880 h
RECORDED_ENDPOINT: Activity

smiles_data=Cl.c1ccc(Cn2nc3cc2CNCCNCCNCc2cc(n(Cc4ccccc4)n2)CNCCNCCNC3)cc1 measured=Toxic
smiles_data=Cl.Cn1nc2cc1CNCCNCCNCc1cc(n(C)n1)CNCCNCCNC2 measured=Non-toxic
smiles_data=O=C(Cn1ccnc1[N+](=O)[O-])NCc1ccccc1 measured=Non-toxic
smiles_data=Cl.c1c2n[nH]c1CNCCN1CCNCc3cc(n[nH]3)CNCCN(CCNC2)CCNCc2cc([nH]n2)CNCC1 measured=Non-toxic

---

Test system: Mus musculus
ASSAY_EXPLANATION: Toxicity in BALB/c mouse liver infected with Trypanosoma cruzi assessed as intestinal hemorrhage at 5 mg/kg, ip after 120 days postinfection by Histopathological analysis
Type: organism-based
Parameters: dose 5 mg/kg, route intraperitoneal
TEST_SETTINGS: in vivo, 2880 h
RECORDED_ENDPOINT: Activity

molecule="O=C(Cn1ccnc1[N+](=O)[O-])NCc1ccccc1 [BENZNIDAZOLE]" target_system="Mus musculus" measured=Toxic
molecule=Cl.Cn1nc2cc1CNCCNCCNCc1cc(n(C)n1)CNCCNCCNC2 target_system="Mus musculus" measured=Non-toxic
molecule=Cl.c1c2n[nH]c1CNCCN1CCNCc3cc(n[nH]3)CNCCN(CCNC2)CCNCc2cc([nH]n2)CNCC1 target_system="Mus musculus" measured=Non-toxic
molecule=Cl.c1ccc(Cn2nc3cc2CNCCNCCNCc2cc(n(Cc4ccccc4)n2)CNCCNCCNC3)cc1 target_system="Mus musculus" measured=Toxic

---

Test system: Mus musculus
ASSAY_EXPLANATION: Toxicity in BALB/c mouse liver infected with Trypanosoma cruzi assessed as hepatic destruction in portal tracts at 5 mg/kg, ip after 120 days postinfection by Histopathological analysis
Assay type: organism-based
Design: dose 5 mg/kg, route intraperitoneal
TEST_SETTINGS: in vivo, 2880 h
RECORDED_ENDPOINT: Activity

smiles_data=Cl.c1c2n[nH]c1CNCCN1CCNCc3cc(n[nH]3)CNCCN(CCNC2)CCNCc2cc([nH]n2)CNCC1 recorded_endpoint=Activity measured=Toxic
smiles_data=Cl.c1ccc(Cn2nc3cc2CNCCNCCNCc2cc(n(Cc4ccccc4)n2)CNCCNCCNC3)cc1 recorded_endpoint=Activity measured=Non-toxic
smiles_data=O=C(Cn1ccnc1[N+](=O)[O-])NCc1ccccc1 recorded_endpoint=Activity measured=Toxic
smiles_data=Cl.Cn1nc2cc1CNCCNCCNCc1cc(n(C)n1)CNCCNCCNC2 recorded_endpoint=Activity measured=Non-toxic

---

Test system: Mus musculus
ASSAY_EXPLANATION: Toxicity in BALB/c mouse liver infected with Trypanosoma cruzi assessed as delocalized hepatic destruction at 5 mg/kg, ip after 120 days postinfection by Histopathological analysis
Format: organism-based
Design: dose 5 mg/kg, route intraperitoneal
TEST_SETTINGS: in vivo, 2880 h
RECORDED_ENDPOINT: Activity

smiles_data=Cl.Cn1nc2cc1CNCCNCCNCc1cc(n(C)n1)CNCCNCCNC2 measured=Non-toxic
smiles_data=Cl.c1c2n[nH]c1CNCCN1CCNCc3cc(n[nH]3)CNCCN(CCNC2)CCNCc2cc([nH]n2)CNCC1 measured=Non-toxic
smiles_data=O=C(Cn1ccnc1[N+](=O)[O-])NCc1ccccc1 measured=Toxic
smiles_data=Cl.c1ccc(Cn2nc3cc2CNCCNCCNCc2cc(n(Cc4ccccc4)n2)CNCCNCCNC3)cc1 measured=Non-toxic

---

Tested on: Mus musculus
ASSAY_EXPLANATION: Toxicity in BALB/c mouse liver infected with Trypanosoma cruzi assessed as necrotic cells in portal tracts at 5 mg/kg, ip after 120 days postinfection by Histopathological analysis
Format: organism-based
Parameters: dose 5 mg/kg, route intraperitoneal
TEST_SETTINGS: in vivo, 2880 h
RECORDED_ENDPOINT: Activity

compound=Cl.c1ccc(Cn2nc3cc2CNCCNCCNCc2cc(n(Cc4ccccc4)n2)CNCCNCCNC3)cc1 measured=Non-toxic
compound=Cl.c1c2n[nH]c1CNCCN1CCNCc3cc(n[nH]3)CNCCN(CCNC2)CCNCc2cc([nH]n2)CNCC1 measured=Non-toxic
compound="O=C(Cn1ccnc1[N+](=O)[O-])NCc1ccccc1 [BENZNIDAZOLE]" measured=Toxic
compound=Cl.Cn1nc2cc1CNCCNCCNCc1cc(n(C)n1)CNCCNCCNC2 measured=Non-toxic

---

System: Trypanosoma cruzi
ASSAY_EXPLANATION: Trypanosomicidal activity against Trypanosoma cruzi SN3 anexic amastigote after 48 hrs by hemocytometric analysis
Type: functional, organism-based
TEST_SETTINGS: SN3, 48 h
RECORDED_ENDPOINT: pIC50
Schema: pIC50 number; meaning minus log10 of the concentration expressed in molar units.

Previously resolved entries follow.
compound=CCCCCCCCN1CCNCc2cc([nH]n2)CNCCN(CCCCCCCC)CCNCc2cc(n[nH]2)CNCC1 measured=4.68
compound=Cl.Cn1nc2cc1CNCCNCCNCc1cc(n(C)n1)CNCCNCCNC2 measured=5.06
compound=Cl.c1ccc(Cn2nc3cc2CNCCNCCNCc2cc(n(Cc4ccccc4)n2)CNCCNCCNC3)cc1 measured=5.00

## Input // pIC50 lookup, key: `Cl.c1c2n[nH]c1CNCCN1CCNCc3cc(n[nH]3)CNCCN(CCNC2)CCNCc2cc([nH]n2)CNCC1`
## Output 5.14

## Input Likewise for O=C(Cn1ccnc1[N+](=O)[O-])NCc1ccccc1 [BENZNIDAZOLE] ?
## Output 4.72

---

System: Mus musculus
ASSAY_EXPLANATION: Toxicity in BALB/c mouse liver infected with Trypanosoma cruzi assessed as granulomas with limphocitic infiltration at 5 mg/kg, ip after 120 days postinfection by Histopathological analysis
Format: organism-based
Parameters: dose 5 mg/kg, route intraperitoneal
TEST_SETTINGS: in vivo, 2880 h
RECORDED_ENDPOINT: Activity

smiles_data=Cl.c1c2n[nH]c1CNCCN1CCNCc3cc(n[nH]3)CNCCN(CCNC2)CCNCc2cc([nH]n2)CNCC1 measured=Non-toxic
smiles_data=Cl.Cn1nc2cc1CNCCNCCNCc1cc(n(C)n1)CNCCNCCNC2 measured=Non-toxic
smiles_data=Cl.c1ccc(Cn2nc3cc2CNCCNCCNCc2cc(n(Cc4ccccc4)n2)CNCCNCCNC3)cc1 measured=Toxic
smiles_data=O=C(Cn1ccnc1[N+](=O)[O-])NCc1ccccc1 measured=Toxic
